SYSTEM NAME: MIF (Homo sapiens)
Construct: made in house; host or cells: E. coli BL21(DE3), pET11b (inferred from Section 6; the Section 8 text says only 'recombinant')
Sequence (P14174 2-115 limits assumed): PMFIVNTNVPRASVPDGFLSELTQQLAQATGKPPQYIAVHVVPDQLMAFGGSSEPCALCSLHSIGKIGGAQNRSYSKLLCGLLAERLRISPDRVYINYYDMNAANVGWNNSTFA
RUN DESCRIPTION: MIF dopachrome tautomerase activity assay with Compound 1b as MIF-substrate
Assay type: biochemical
MEASUREMENT PARAMETERS: test compound used in place of the MIF-substrate
ATTRIBUTE MEASURED: Tautomerization by MIF when substituted for the MIF-substrate

# Tautomerization by MIF when substituted for the MIF-substrate (compound: CC1(C(=O)O)CC2=CC(=O)C(O)=CC2=N1 (stereo not shown) [Compound 3b] ) is unreactive

Form: compound = COC(=O)C1(C)CC2=CC(=O)C(O)=CC2=N1 (stereo not shown) [Compound 5b] ; Tautomerization by MIF when substituted for the MIF-substrate = unreactive

Tautomerization by MIF when substituted for the MIF-substrate for CC1(C(=O)O)CC2=CC(=O)C(O)=CC2=N1 (stereo not shown) [Compound 2b] is unreactive

Note to self: Tautomerization by MIF when substituted for the MIF-substrate recorded for COC(=O)C1(C)CC2=CC(=O)C(O)=CC2=N1 (stereo not shown) [Compound 4b] was unreactive
